Target: hNK2R (Homo sapiens, UniProt P21452)
Construct: host or cells: COS-7
Sequence (P21452 1-398): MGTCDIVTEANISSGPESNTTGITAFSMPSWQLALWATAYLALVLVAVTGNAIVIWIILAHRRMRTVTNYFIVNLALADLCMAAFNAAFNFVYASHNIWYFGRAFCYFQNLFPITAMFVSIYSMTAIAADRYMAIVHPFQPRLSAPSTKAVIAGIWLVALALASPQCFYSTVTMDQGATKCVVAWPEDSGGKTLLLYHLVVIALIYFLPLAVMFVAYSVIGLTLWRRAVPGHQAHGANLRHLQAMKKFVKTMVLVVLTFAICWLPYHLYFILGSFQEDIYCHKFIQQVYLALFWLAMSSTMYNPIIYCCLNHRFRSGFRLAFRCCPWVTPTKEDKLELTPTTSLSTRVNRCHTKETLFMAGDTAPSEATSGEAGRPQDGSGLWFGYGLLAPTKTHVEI
Assay: IP3 assay (inositol trisphosphate, 3H-myoinositol) in transiently transfected COS-7 cells
Assay type: cell-based
Settings: COS-7 cells; figure legends: percent of 10^-6 M NKA
Numbered stars: 1 amine (or outer) side, 2 acyl side, 3 side chain; on linkers, the order of the positions; unused ones are H or OH. Square brackets hold non-standard residues; d marks the D form. Peptide text beside a SMILES is read from it. * marks the point of attachment. C18 diacid = O=C(O)CCCCCCCCCCCCCCCCC(=O)*; γGlu = O=C(O)[C@H](CCC(=O)[*:2])N[*:1]; NMeL = CN[C@@H](CC(C)C)C(=O)O; Nle = CCCC[C@H](N)C(=O)O; AEEA = NCCOCCOCC(=O)O
The following compounds are shown together with reported hNK2R, IP3 Efficacy values.

| COMPOUND | hNK2R, IP3 Efficacy [%] |
| --- | --- |
| CCCC[C@H](NC(=O)[C@H](CC(C)C)N(C)C(=O)CNC(=O)[C@@H](NC(=O)[C@H](Cc1ccc(I)cc1)NC(=O)[C@H](CCCCN)NC(=O)[C@H](CC(=O)O)NC(=O)COCCOCCNC(=O)COCCOCCNC(=O)CC[C@H](NC(=O)CCCCCCCCCCCCCCCCC(=O)O)C(=O)O)C(C)C)C(N)=O | 0 |
| CCCC[C@H](NC(=O)[C@H](CC(C)C)N(C)C(=O)CNC(=O)[C@@H](NC(=O)[C@H](Cc1ccccc1)NC(=O)[C@H](CCCCN)NC(=O)[C@H](CCC(=O)O)NC(=O)COCCOCCNC(=O)COCCOCCNC(=O)CC[C@H](NC(=O)CCCCCCCCCCCCCCCCC(=O)O)C(=O)O)C(C)C)C(N)=O [compound 335, *Glu;Lys;Phe;Val;Gly;NmLeu;Nle;NH2] ({C18 diacid-γGlu-AEEA-AEEA}-EKFVG[NMeL][Nle]-NH2) | 80 |

* * *

Biological target: hNK1R (Homo sapiens, UniProt P25103)
Sequence (P25103 whole entry): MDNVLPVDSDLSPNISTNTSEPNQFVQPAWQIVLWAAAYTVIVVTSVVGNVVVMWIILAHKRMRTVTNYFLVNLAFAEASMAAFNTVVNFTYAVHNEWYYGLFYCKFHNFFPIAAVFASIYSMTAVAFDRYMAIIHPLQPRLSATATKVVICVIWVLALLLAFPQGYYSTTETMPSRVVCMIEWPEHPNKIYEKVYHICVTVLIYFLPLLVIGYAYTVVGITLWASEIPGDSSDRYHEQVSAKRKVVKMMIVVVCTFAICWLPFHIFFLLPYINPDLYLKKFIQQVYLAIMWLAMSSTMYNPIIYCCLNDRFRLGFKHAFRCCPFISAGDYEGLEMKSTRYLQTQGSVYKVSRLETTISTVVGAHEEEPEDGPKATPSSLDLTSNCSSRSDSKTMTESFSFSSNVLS
Assay: IP3 assay (inositol trisphosphate, 3H-myoinositol) in transiently transfected COS-7 cells
Details: COS-7 cells, 0.2% ovalbumin buffer
pEC50: −log10 of the molar value. Numbered stars: 1 amine (or outer) side, 2 acyl side, 3 side chain; on linkers, the order of the positions; unused ones are H or OH. Square brackets hold non-standard residues; d marks the D form. Peptide text beside a SMILES is read from it. * marks the point of attachment. C18 diacid = O=C(O)CCCCCCCCCCCCCCCCC(=O)*; γGlu = O=C(O)[C@H](CCC(=O)[*:2])N[*:1]; NMeL = CN[C@@H](CC(C)C)C(=O)O; Nle = CCCC[C@H](N)C(=O)O; AEEA = NCCOCCOCC(=O)O
RECORDED ENDPOINT: pEC50

| MOLECULE | TEST RESULT |
| --- | --- |
| CSCC[C@H](NC(=O)[C@H](CC(C)C)N(C)C(=O)CNC(=O)[C@@H](NC(=O)[C@H](Cc1ccc(O)cc1)NC(=O)[C@H](CCCCN)NC(=O)[C@H](CC(=O)O)NC(=O)COCCOCCNC(=O)COCCOCCNC(=O)CC[C@H](NC(=O)CCCCCCCCCCCCCCCCC(=O)O)C(=O)O)C(C)C)C(N)=O [compound 316, *Asp;Lys;Tyr;Val;Gly;NmLeu;Met;NH2] ({C18 diacid-γGlu-AEEA-AEEA}-DKYVG[NMeL]M-NH2) | 7.70 |
| CCCC[C@H](NC(=O)[C@H](CC(C)C)N(C)C(=O)CNC(=O)[C@@H](NC(=O)[C@H](Cc1ccccc1)NC(=O)[C@H](CCCNC(=N)N)NC(=O)[C@H](CCC(=O)O)NC(=O)COCCOCCNC(=O)COCCOCCNC(=O)CC[C@H](NC(=O)CCCCCCCCCCCCCCCCC(=O)O)C(=O)O)C(C)C)C(N)=O [compound 337, *Glu;Arg;Phe;Val;Gly;NmLeu;Nle;NH2] ({C18 diacid-γGlu-AEEA-AEEA}-ERFVG[NMeL][Nle]-NH2) | 7.64 |

* * *

Molecular target: hNK2R (Homo sapiens, UniProt P21452)
Construct: host or cells: COS-7
Sequence (P21452 1-398): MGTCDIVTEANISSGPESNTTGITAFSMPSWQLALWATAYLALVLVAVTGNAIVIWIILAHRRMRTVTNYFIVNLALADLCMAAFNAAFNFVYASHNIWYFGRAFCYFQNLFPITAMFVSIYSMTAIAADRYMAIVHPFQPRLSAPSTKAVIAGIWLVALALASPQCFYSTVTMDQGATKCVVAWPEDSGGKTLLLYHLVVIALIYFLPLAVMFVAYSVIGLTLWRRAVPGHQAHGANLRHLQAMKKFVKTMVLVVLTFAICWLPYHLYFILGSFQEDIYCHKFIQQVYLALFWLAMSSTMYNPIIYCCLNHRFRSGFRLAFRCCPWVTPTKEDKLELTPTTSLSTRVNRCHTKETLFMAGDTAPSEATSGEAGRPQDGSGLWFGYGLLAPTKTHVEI
Experiment: IP3 assay (inositol trisphosphate, 3H-myoinositol) in transiently transfected COS-7 cells
Format: cell-based
Settings: COS-7 cells; figure legends: percent of 10^-6 M NKA
Numbered stars: 1 amine (or outer) side, 2 acyl side, 3 side chain; on linkers, the order of the positions; unused ones are H or OH. Square brackets hold non-standard residues; d marks the D form. Peptide text beside a SMILES is read from it. * marks the point of attachment. C18 diacid = O=C(O)CCCCCCCCCCCCCCCCC(=O)*; γGlu = O=C(O)[C@H](CCC(=O)[*:2])N[*:1]; Cha = N[C@@H](CC1CCCCC1)C(=O)O; NMeL = CN[C@@H](CC(C)C)C(=O)O; hSer = N[C@@H](CCO)C(=O)O; AEEA = NCCOCCOCC(=O)O
The following compounds are shown together with reported hNK2R, IP3 Efficacy values.
RECORDED ENDPOINT: hNK2R, IP3 Efficacy

| COMPOUND | STUDY SYSTEM | TEST RESULT |
| --- | --- | --- |
| COCC[C@H](NC(=O)[C@H](CC(C)C)NC(=O)[C@@H](CO)NC(=O)[C@@H](NC(=O)[C@H](Cc1ccc(O)cc1)NC(=O)[C@H](CCCCN)NC(=O)[C@H](CC(=O)O)NC(=O)COCCOCCNC(=O)COCCOCCNC(=O)CC[C@H](NC(=O)CCCCCCCCCCCCCCCCC(=O)O)C(=O)O)C(C)C)C(N)=O [compound 396, *Asp;Lys;Tyr;Val;dSer;Leu;Metox;NH2] ({C18 diacid-γGlu-AEEA-AEEA}-DKYV[dS]L[hSer](Me)-NH2) | hNK2R (Homo sapiens, UniProt P21452) | 92% |
| COCC[C@H](NC(=O)[C@H](CC(C)C)N(C)C(=O)CNC(=O)[C@@H](NC(=O)[C@H](Cc1ccccc1)NC(=O)[C@H](CCCCN)NC(=O)[C@H](CC(=O)O)NC(=O)COCCOCCNC(=O)COCCOCCNC(=O)CC[C@H](NC(=O)CCCCCCCCCCCCCCCCC(=O)O)C(=O)O)[C@@H](C)O)C(N)=O [compound 383, *Asp;Lys;Phe;Thr;Gly;NmLeu;Metox;NH2] ({C18 diacid-γGlu-AEEA-AEEA}-DKFTG[NMeL][hSer](Me)-NH2) | hNK2R (Homo sapiens, UniProt P21452) | 95% |
| CSCC[C@H](NC(=O)[C@H](CC(C)C)N(C)C(=O)CNC(=O)[C@@H](NC(=O)[C@H](Cc1ccc(O)cc1)NC(=O)[C@H](CCCCN)NC(=O)[C@H](CC(=O)O)NC(=O)COCCOCCNC(=O)COCCOCCNC(=O)CC[C@H](NC(=O)CCCCCCCCCCCCCCCCC(=O)O)C(=O)O)C(C)C)C(N)=O [compound 316, *Asp;Lys;Tyr;Val;Gly;NmLeu;Met;NH2] ({C18 diacid-γGlu-AEEA-AEEA}-DKYVG[NMeL]M-NH2) | hNK2R (Homo sapiens, UniProt P21452) | 120% |
| CC(C)C[C@@H](C(=O)N[C@@H](CC1CCCCC1)C(N)=O)N(C)C(=O)CNC(=O)[C@@H](NC(=O)[C@H](Cc1ccc(O)cc1)NC(=O)[C@H](CCCCN)NC(=O)[C@H](CC(=O)O)NC(=O)COCCOCCNC(=O)COCCOCCNC(=O)CC[C@H](NC(=O)CCCCCCCCCCCCCCCCC(=O)O)C(=O)O)C(C)C [compound 313, *Asp;Lys;Tyr;Val;Gly;NmLeu;cHexAla;NH2] ({C18 diacid-γGlu-AEEA-AEEA}-DKYVG[NMeL][Cha]-NH2) | hNK2R (Homo sapiens, UniProt P21452) | 70% |
